Assay: Dissociation constant, pKa of the compound
Format: physicochemical
Endpoint label: pKa

Here is how some compounds turned out for pKa.
- CC(C)N1C[C@H](C(=O)Nc2ccc(Cl)cn2)[C@@H](C(=O)Nc2ccc(-n3ccccc3=O)cc2F)C1: 7.55
- COC(=O)N1C[C@H](C(=O)Nc2ccc(Cl)cn2)[C@@H](C(=O)Nc2ccc(-n3ccccc3=O)cc2F)C1: 2.75

I. CCS(=O)(=O)N1C[C@H](C(=O)Nc2ccc(Cl)cn2)[C@@H](C(=O)Nc2ccc(-n3ccccc3=O)cc2F)C1
II. O=C(Nc1ccc(Cl)cn1)[C@H]1CN(CC(F)F)C[C@@H]1C(=O)Nc1ccc(-n2ccccc2=O)cc1F
[in] Looking at I and II , which one comes out lower in pKa terms? Write the label of whichever entry you select.
[out] I

* * *

Assay: Clearance in cynomolgus monkey
Format: ADME, organism-based, Macaca fascicularis
Conditions: in vivo
Endpoint label: clearance (mL/min/kg)

• CC(C)N1C[C@H](C(=O)Nc2ccc(Cl)cn2)[C@@H](C(=O)Nc2ccc(-n3ccccc3=O)cc2F)C1 = 17
• CCS(=O)(=O)N1C[C@H](C(=O)Nc2ccc(Cl)cn2)[C@@H](C(=O)Nc2ccc(-n3ccccc3=O)cc2F)C1 = 5.5

A. COC(=O)N1C[C@H](C(=O)Nc2ccc(Cl)cn2)[C@@H](C(=O)Nc2ccc(-n3ccccc3=O)cc2F)C1
B. O=C(Nc1ccc(Cl)cn1)[C@H]1CN(CC(F)F)C[C@@H]1C(=O)Nc1ccc(-n2ccccc2=O)cc1F
[in] Please compare: A and B . Report which one has the smaller clearance value. Reply with the label of the item you choose.
[out] A

* * *

System: Phospholipidosis
Experiment: In vitro phospholipidosis
Assay type: ADME, cell-based
Settings: human, hepg2
Endpoint label: Phospholipidosis

• CCS(=O)(=O)N1C[C@H](C(=O)Nc2ccc(Cl)cn2)[C@@H](C(=O)Nc2ccc(-n3ccccc3=O)cc2F)C1 = Not Active
• O=C(Nc1ccc(Cl)cn1)[C@H]1CN(CC(F)F)C[C@@H]1C(=O)Nc1ccc(-n2ccccc2=O)cc1F = Not Active
• COC(=O)N1C[C@H](C(=O)Nc2ccc(Cl)cn2)[C@@H](C(=O)Nc2ccc(-n3ccccc3=O)cc2F)C1 = Not Active

* * *

Experiment: Lipophilicity, log D of the compound at pH 7.4
Type: physicochemical
Conditions: buffer
Endpoint label: logD

Answered examples (10):
* COC(=O)N1C[C@H](C(=O)Nc2ccc(Cl)cc2)[C@@H](C(=O)Nc2ccc(-n3ccccc3=O)cc2F)C1 | 2.43
* CN(C)S(=O)(=O)N1C[C@H](C(=O)Nc2ccc(Cl)cc2)[C@@H](C(=O)Nc2ccc(-n3ccccc3=O)cc2F)C1 | 2.62
* CS(=O)(=O)N1C[C@H](C(=O)Nc2ccc(OC(F)(F)F)cc2)[C@@H](C(=O)Nc2ccc(-n3ccccc3=O)cc2F)C1 | 2.36
* CS(=O)(=O)N1C[C@H](C(=O)Nc2ccc(Cl)cn2)[C@@H](C(=O)Nc2ccc(-n3ccccc3=O)cc2F)C1 | 1.46
* CS(=O)(=O)N1C[C@H](C(=O)Nc2ccc(Cl)cc2)[C@@H](C(=O)Nc2ccc(-n3ccccc3=O)cc2F)C1 | 2.17
* COC(=O)N1C[C@H](C(=O)Nc2ccc(Cl)cn2)[C@@H](C(=O)Nc2ccc(-n3ccccc3=O)cc2F)C1 | 2.02
* CCOC(=O)N1C[C@H](C(=O)Nc2ccc(Cl)cc2)[C@@H](C(=O)Nc2ccc(-n3ccccc3=O)cc2F)C1 | 2.57
* COc1ccc(NC(=O)[C@H]2CN(S(C)(=O)=O)C[C@@H]2C(=O)Nc2ccc(-n3ccccc3=O)cc2F)cc1 | 1.19
* O=C(Nc1ccc(Cl)cn1)[C@H]1CN(CC(F)(F)F)C[C@@H]1C(=O)Nc1ccc(-n2ccccc2=O)cc1F | 2.62
* O=C(Nc1ccc(Cl)cc1)[C@H]1CN(CC(F)(F)F)C[C@@H]1C(=O)Nc1ccc(-n2ccccc2=O)cc1F | 3.2

P. CS(=O)(=O)N1C[C@H](C(=O)Nc2ccc3[nH]ccc3c2)[C@@H](C(=O)Nc2ccc(-n3ccccc3=O)cc2F)C1
Q. CC(C)N1C[C@H](C(=O)Nc2ccc(Cl)cn2)[C@@H](C(=O)Nc2ccc(-n3ccccc3=O)cc2F)C1
R. CCCS(=O)(=O)N1C[C@H](C(=O)Nc2ccc(Cl)cc2)[C@@H](C(=O)Nc2ccc(-n3ccccc3=O)cc2F)C1
[in] Could you please order the items by logD, going from the lowest number to the highest? A ranking is expressed here by listing the labels in the requested order.
[out] P, Q, R
(P: 1.07, Q: 1.86, R: 2.94)

P. CS(=O)(=O)N1C[C@H](C(=O)Nc2ccc(Cl)c(F)c2)[C@@H](C(=O)Nc2ccc(-n3ccccc3=O)cc2F)C1
Q. COc1ccc(NC(=O)[C@H]2CN(S(C)(=O)=O)C[C@@H]2C(=O)Nc2ccc(-n3ccccc3=O)cc2F)cc1F
[in] Lower logD: P or Q ? Lab log: write the label of the selected item as the result.
[out] Q

a. NS(=O)(=O)N1C[C@H](C(=O)Nc2ccc(Cl)cc2)[C@@H](C(=O)Nc2ccc(-n3ccccc3=O)cc2F)C1
b. O=C(Nc1ccc(Cl)cc1)[C@H]1CN(C(=O)N2CCCC2)C[C@@H]1C(=O)Nc1ccc(-n2ccccc2=O)cc1F
[in] Which of the two gives a bigger number for logD: a or b ? Kindly state the label of the option you pick.
[out] b
(b: 2.78, a: 1.83)

* * *

Test system: Rattus norvegicus
Test: Dose normalized AUC in po dosed rat
Assay type: ADME, organism-based
Details: in vivo
Endpoint label: AUC (ng·h/mL)

Worked examples, 2 molecules total:
- CC(C)N1C[C@H](C(=O)Nc2ccc(Cl)cn2)[C@@H](C(=O)Nc2ccc(-n3ccccc3=O)cc2F)C1: 900
- O=C(Nc1ccc(Cl)cn1)[C@H]1CN(CC(F)F)C[C@@H]1C(=O)Nc1ccc(-n2ccccc2=O)cc1F: 10000

I. COC(=O)N1C[C@H](C(=O)Nc2ccc(Cl)cn2)[C@@H](C(=O)Nc2ccc(-n3ccccc3=O)cc2F)C1
II. CCS(=O)(=O)N1C[C@H](C(=O)Nc2ccc(Cl)cn2)[C@@H](C(=O)Nc2ccc(-n3ccccc3=O)cc2F)C1
[in] Consider I and II . Which of these has its AUC at a higher number? Answer = label.
[out] II

* * *

Test: Half life in cynomolgus monkey
Type: ADME, organism-based, Macaca fascicularis
Conditions: in vivo
Endpoint label: half-life (h)

* COC(=O)N1C[C@H](C(=O)Nc2ccc(Cl)cn2)[C@@H](C(=O)Nc2ccc(-n3ccccc3=O)cc2F)C1 | 5
* CC(C)N1C[C@H](C(=O)Nc2ccc(Cl)cn2)[C@@H](C(=O)Nc2ccc(-n3ccccc3=O)cc2F)C1 | 4.7

I. O=C(Nc1ccc(Cl)cn1)[C@H]1CN(CC(F)F)C[C@@H]1C(=O)Nc1ccc(-n2ccccc2=O)cc1F
II. CCS(=O)(=O)N1C[C@H](C(=O)Nc2ccc(Cl)cn2)[C@@H](C(=O)Nc2ccc(-n3ccccc3=O)cc2F)C1
[in] Exercise: compare I and II ; which one has the greater half-life? In your reply, give the label of the chosen option.
[out] I
(I: 6.3 h, II: 1.9 h)

* * *

Experiment: Oral bioavailability in cynomolgus monkey
Format: ADME, organism-based, Macaca fascicularis
Conditions: in vivo
Endpoint label: bioavailability (%)

• CC(C)N1C[C@H](C(=O)Nc2ccc(Cl)cn2)[C@@H](C(=O)Nc2ccc(-n3ccccc3=O)cc2F)C1 = 80
• O=C(Nc1ccc(Cl)cn1)[C@H]1CN(CC(F)F)C[C@@H]1C(=O)Nc1ccc(-n2ccccc2=O)cc1F = 65

P. CCS(=O)(=O)N1C[C@H](C(=O)Nc2ccc(Cl)cn2)[C@@H](C(=O)Nc2ccc(-n3ccccc3=O)cc2F)C1
Q. COC(=O)N1C[C@H](C(=O)Nc2ccc(Cl)cn2)[C@@H](C(=O)Nc2ccc(-n3ccccc3=O)cc2F)C1
[in] Compare P and Q by numeric bioavailability and name the larger one. // respond with label for picked entry
[out] Q

* * *

Experiment: Volume of distribution at steady state in cynomolgus monkey
Type: ADME, organism-based, Macaca fascicularis
Settings: in vivo, read-out: Vdss
Endpoint label: Vd (L/kg)

- COC(=O)N1C[C@H](C(=O)Nc2ccc(Cl)cn2)[C@@H](C(=O)Nc2ccc(-n3ccccc3=O)cc2F)C1: 0.44
- O=C(Nc1ccc(Cl)cn1)[C@H]1CN(CC(F)F)C[C@@H]1C(=O)Nc1ccc(-n2ccccc2=O)cc1F: 0.54

A. CCS(=O)(=O)N1C[C@H](C(=O)Nc2ccc(Cl)cn2)[C@@H](C(=O)Nc2ccc(-n3ccccc3=O)cc2F)C1
B. CC(C)N1C[C@H](C(=O)Nc2ccc(Cl)cn2)[C@@H](C(=O)Nc2ccc(-n3ccccc3=O)cc2F)C1
[in] Given the listed records, identify the one among A and B with higher Vd. To answer, give the label that identifies your chosen option.
[out] B
(B: 1.6 L/kg, A: 0.46 L/kg)
